Each item that follows carries a reported pest or weed control at 320 g/ha.
System: Echinochloa crus-galli
Experiment: Post-emergence herbicidal activity against ECHCG
Assay type: in vivo
Settings: Echinochloa crus-galli, 504 h, dosage 320 g/ha, rated about 3 weeks after treatment

See these solved cases before continuing.
Task item: Would you mind telling me what pest or weed control at 320 g/ha value was observed for COC(=O)[C@H]1C[C@@H](NC(=O)[C@@]2(C)CC(c3cc(F)cc(F)c3)=NO2)CO1 (mixture of isomers) [I-09] ?
Reply: 80%

Task item: Would you mind telling me what pest or weed control at 320 g/ha value was observed for C=CC1(C(=O)N[C@H]2CO[C@@H](C(=O)OC)C2)CC(c2cc(Cl)cc(Cl)c2)=NO1 (relative stereo) [I-03] ?
Reply: 80%

Task item: Would you mind telling me what pest or weed control at 320 g/ha value was observed for C=CC1(C(=O)N[C@H]2CO[C@@H](C(=O)OC)C2)CC(c2cccc(F)c2)=NO1 (relative stereo) [I-07] ?
Reply: 80%

For the next question, use this compound.
Task item: Would you mind telling me what pest or weed control at 320 g/ha value was observed for COC(=O)[C@H]1C[C@@H](NC(=O)C2(OC)CC(c3cc(Cl)cc(Cl)c3)=NO2)CO1 (relative stereo) [I-02] ?
Reply: 90%

====

Each item that follows carries a reported Post-emergence herbicidal activity against AVEFA in %.
System: Avena fatua
Test: Post-emergence herbicidal activity against AVEFA
Assay type: in vivo
Details: dosage 320 g/ha, rated about 3 weeks after treatment
Quick reminder: number only, in %, skip the unit.

Task item: Would you mind telling me what Post-emergence herbicidal activity against AVEFA in % value was observed for COC(=O)C1CC(NC(=O)C2(C(C)(F)F)CC(c3cc(F)cc(F)c3)=NO2)CO1 (centres unmarked) [I-49] ?
Reply: 80

Task item: Would you mind telling me what Post-emergence herbicidal activity against AVEFA in % value was observed for CC(C)(C)OC(=O)C1CC(NC(=O)C2(C)CC(c3cc(F)cc(F)c3)=NO2)CO1 (mixture of isomers) [I-42] ?
Reply: 100

Task item: Would you mind telling me what Post-emergence herbicidal activity against AVEFA in % value was observed for C=C[C@]1(C(=O)N[C@H]2CO[C@@H](C(=O)OC)C2)CC(c2cc(F)cc(F)c2)=NO1 (single isomer, unassigned) [I-12] ?
Reply: 100

Task item: Would you mind telling me what Post-emergence herbicidal activity against AVEFA in % value was observed for CC(F)(F)C1(C(=O)NC2COC(C(=O)O)C2)CC(c2cc(F)cc(F)c2)=NO1 (centres unmarked) [I-50] ?
Reply: 100

Task item: Would you mind telling me what Post-emergence herbicidal activity against AVEFA in % value was observed for CCOC(=O)C1CC(NC(=O)C2(C)CC(c3cc(F)cc(F)c3)=NO2)CO1 (mixture of isomers) [I-43] ?
Reply: 100

Task item: Would you mind telling me what Post-emergence herbicidal activity against AVEFA in % value was observed for CC1(C(=O)NC2COC(C(=O)OCc3ccccc3)C2)CC(c2cc(F)cc(F)c2)=NO1 (mixture of isomers) [I-45] ?
Reply: 100

Task item: Would you mind telling me what Post-emergence herbicidal activity against AVEFA in % value was observed for CC(C)OC(=O)C1CC(NC(=O)C2(C)CC(c3cc(F)cc(F)c3)=NO2)CO1 (centres unmarked) [I-44] ?
Reply: 100

Task item: Would you mind telling me what Post-emergence herbicidal activity against AVEFA in % value was observed for CC1(C(=O)NC2COC(C(=O)OCc3cccc(F)c3)C2)CC(c2cc(F)cc(F)c2)=NO1 (mixture of isomers) [I-53] ?
Reply: 90

====

Test system: Echinochloa crus-galli
Experiment: Post-emergence herbicidal activity against ECHCG
Type: in vivo
Conditions: Echinochloa crus-galli, 504 h, dosage 320 g/ha, rated about 3 weeks after treatment
ATTRIBUTE MEASURED: pest or weed control at 320 g/ha (%)
Quick reminder: number only, in %, skip the unit.

Task item: Would you mind telling me what pest or weed control at 320 g/ha value was observed for COC(=O)[C@@]1(OC)C[C@@H](NC(=O)C2(C)CC(c3cccc(F)c3)=NO2)CO1 (some centres unmarked) ?
Reply: 100

For the next question, use this molecule.
Task item: Would you mind telling me what pest or weed control at 320 g/ha value was observed for C=C[C@]1(C(=O)NC2COCC2C(=O)OC)CC(c2cc(F)cc(F)c2)=NO1 (some centres unmarked) ?
Reply: 90

====

Tested on: Avena fatua
Assay: Post-emergence herbicidal activity against AVEFA
Format: in vivo
Conditions: Avena fatua, 504 h, dosage 320 g/ha, rated about 3 weeks after treatment
ATTRIBUTE MEASURED: pest or weed control at 320 g/ha (%)
Quick reminder: number only, in %, skip the unit.

See these solved cases before continuing.
Task item: Would you mind telling me what pest or weed control at 320 g/ha value was observed for CC1(C(=O)N[C@H]2CO[C@@H](C(=O)OCc3ccccc3)C2)CC(c2cccc(F)c2)=NO1 (mixture of isomers) ?
Reply: 100

Task item: Would you mind telling me what pest or weed control at 320 g/ha value was observed for COC(=O)[C@H]1C[C@@H](NC(=O)C2(C(F)(F)F)CC(c3cc(F)cc(F)c3)=NO2)CO1 (relative stereo) ?
Reply: 90

Task item: Would you mind telling me what pest or weed control at 320 g/ha value was observed for C=C[C@]1(C(=O)N[C@H]2CO[C@@H](C(=O)OC(C)(C)C)C2)CC(c2cc(F)cc(F)c2)=NO1 (mixture of isomers) ?
Reply: 90

Task item: Would you mind telling me what pest or weed control at 320 g/ha value was observed for COC(=O)[C@@]1(OC)C[C@@H](NC(=O)C2(C)CC(c3cccc(F)c3)=NO2)CO1 (stereo partly shown) ?
Reply: 100

Task item: Would you mind telling me what pest or weed control at 320 g/ha value was observed for C=C[C@]1(C(=O)N[C@H]2CO[C@@H](C(=O)OC)C2)CC(c2cc(F)cc(F)c2)=NO1 (single isomer, unassigned) [I-11] ?
Reply: 100

Further cases:
Task item: Would you mind telling me what pest or weed control at 320 g/ha value was observed for COC(=O)C1COCC1NC(=O)C1(OC)CC(c2cc(Cl)cc(Cl)c2)=NO1 (stereo not shown) ?
Reply: 90

Task item: Would you mind telling me what pest or weed control at 320 g/ha value was observed for COC(=O)[C@H]1C[C@@H](NC(=O)C2(C)CC(c3cc(C)cc(Br)c3)=NO2)CO1 (relative stereo) ?
Reply: 100

====

Test system: Pharbitis purpurea
Assay: Post-emergence herbicidal activity against PHBPU
Assay type: in vivo
Conditions: dosage 320 g/ha, rated about 3 weeks after treatment
Each item that follows carries a reported Post-emergence herbicidal activity against PHBPU in %.
Write the quantity with the unit trailing the number.

See these solved cases before continuing.
Task item: Would you mind telling me what Post-emergence herbicidal activity against PHBPU in % value was observed for CC(C)OC(=O)C1CC(NC(=O)C2(C)CC(c3cc(F)cc(F)c3)=NO2)CO1 (stereo not shown) ?
Reply: 90%

Task item: Would you mind telling me what Post-emergence herbicidal activity against PHBPU in % value was observed for COC(=O)C1CC(NC(=O)C2(C)CC(c3cc(F)cc(F)c3)=NO2)CO1 (mixture of isomers) ?
Reply: 80%

Task item: Would you mind telling me what Post-emergence herbicidal activity against PHBPU in % value was observed for C=CC1(C(=O)NC2COC(C(=O)OCc3ccc(OC)cc3)C2)CC(c2cc(F)cc(F)c2)=NO1 (mixture of isomers) ?
Reply: 90%

Further cases:
Task item: Would you mind telling me what Post-emergence herbicidal activity against PHBPU in % value was observed for CC(C)(C)OC(=O)C1CC(NC(=O)C2(C)CC(c3cc(F)cc(F)c3)=NO2)CO1 (mixture of isomers) ?
Reply: 90%

====

Test system: Echinochloa crus-galli
Experiment: Post-emergence herbicidal activity against ECHCG
Assay type: in vivo
Details: Echinochloa crus-galli, 504 h, dosage 320 g/ha, rated about 3 weeks after treatment
Each item that follows carries a reported pest or weed control at 320 g/ha.
Quick reminder: number only, in %, skip the unit.

See these solved cases before continuing.
Task item: Would you mind telling me what pest or weed control at 320 g/ha value was observed for COC(=O)[C@H]1C[C@@H](NC(=O)C2(C(F)(F)F)CC(c3cc(F)cc(F)c3)=NO2)CO1 (relative stereo) ?
Reply: 90

Task item: Would you mind telling me what pest or weed control at 320 g/ha value was observed for COC(=O)C1COCC1NC(=O)C1(OC)CC(c2cc(Cl)cc(Cl)c2)=NO1 (stereo not drawn) ?
Reply: 90

Task item: Would you mind telling me what pest or weed control at 320 g/ha value was observed for COC(=O)[C@H]1C[C@@H](NC(=O)C2(C)CC(c3cc(F)cc(F)c3)=NO2)CO1 (relative stereo) ?
Reply: 90

Task item: Would you mind telling me what pest or weed control at 320 g/ha value was observed for CC1(C(=O)N[C@H]2CO[C@@H](C(=O)OCc3ccccc3)C2)CC(c2cccc(F)c2)=NO1 (mixture of isomers) ?
Reply: 90

Further cases:
Task item: Would you mind telling me what pest or weed control at 320 g/ha value was observed for COC(=O)[C@]1(OC)C[C@H](NC(=O)C2(C)CC(c3cccc(F)c3)=NO2)CO1 (stereo partly drawn) ?
Reply: 80

Task item: Would you mind telling me what pest or weed control at 320 g/ha value was observed for CCOC(=O)[C@H]1C[C@@H](NC(=O)C2(C)CC(c3cccc(F)c3)=NO2)CO1 (mixture of isomers) ?
Reply: 80

This collection of values is drawn from patent US11597724B2.
